Source listed as ChEMBL document CHEMBL1158551.

# Tested on: Influenza B virus
# measurement.notes: Antiviral activity against influenza B virus assessed as inhibition of viral induced cytopathic effect
# Type: functional, organism-based
metric.name: EC50

Note down EC50 recorded for `COC(=O)[C@@H]1NC(=O)[C@H]2NC(=O)[C@H](NC(=O)[C@@H]3NC(=O)[C@H]4NC(=O)[C@H](NC(=O)[C@H](n5cc(CO[C@H]6O[C@H](CO)[C@@H](O)[C@H](O)[C@H]6O)nn5)c5ccc(O)c(c5)Oc5cc4cc(O)c5C)[C@H](O)c4ccc(cc4)Oc4cc3cc(c4O)Oc3ccc(cc3)[C@H]2O)c2ccc(O)c(c2)-c2c(O)cc(O)cc21`
32 µM

Read the entry `COC(=O)[C@H]1NC(=O)[C@H]2NC(=O)[C@H](NC(=O)[C@@H]3NC(=O)[C@H]4NC(=O)[C@H](NC(=O)[C@H](N=[N+]=[N-])c5ccc(O)c(c5)Oc5cc4cc(O)c5C)[C@H](O)c4ccc(cc4)Oc4cc3cc(c4O)Oc3ccc(cc3)[C@H]2O)c2ccc(O)c(c2)-c2c(O)cc(O)cc21` and write its reported EC50.
> 100 µM

Check the records and state EC50 for `COC(=O)[C@@H]1NC(=O)[C@H]2NC(=O)[C@H](NC(=O)[C@@H]3NC(=O)[C@H]4NC(=O)[C@H](NC(=O)[C@H](n5cc(CO[C@H]6O[C@H](CO)[C@@H](O)[C@H](O)[C@@H]6O)nn5)c5ccc(O)c(c5)Oc5cc4cc(O)c5C)[C@H](O)c4ccc(cc4)Oc4cc3cc(c4O)Oc3ccc(cc3)[C@H]2O)c2ccc(O)c(c2)-c2c(O)cc(O)cc21`
≥ 45 µM

###

# System: Staphylococcus aureus
# measurement.notes: Antibacterial activity against methicillin-[…] Staphylococcus aureus ATCC 33591 by broth microdilution method
# Type: functional
For each of the compounds below, state its MBC.
Please state the figure in µg/mL; there is no need to write the unit.

Find the measured MBC of `COC(=O)[C@@H]1NC(=O)[C@H]2NC(=O)[C@H](NC(=O)[C@@H]3NC(=O)[C@H]4NC(=O)[C@H](NC(=O)[C@H](n5cc(CO[C@H]6O[C@H](CO)[C@@H](O[C@H]7O[C@H](CO)[C@@H](O)[C@H](O)[C@H]7O)[C@H](O)[C@H]6O)nn5)c5ccc(O)c(c5)Oc5cc4cc(O)c5C)[C@H](O)c4ccc(cc4)Oc4cc3cc(c4O)Oc3ccc(cc3)[C@H]2O)c2ccc(O)c(c2)-c2c(O)cc(O)cc21` and report it.
256

Annotate the compound `COC(=O)[C@@H]1NC(=O)[C@H]2NC(=O)[C@H](NC(=O)[C@@H]3NC(=O)[C@H]4NC(=O)[C@H](NC(=O)[C@H](n5cc(CO[C@H]6O[C@H](COC(C)=O)[C@@H](OC(C)=O)[C@H](OC(C)=O)[C@@H]6OC(C)=O)nn5)c5ccc(O)c(c5)Oc5cc4cc(O)c5C)[C@H](O)c4ccc(cc4)Oc4cc3cc(c4O)Oc3ccc(cc3)[C@H]2O)c2ccc(O)c(c2)-c2c(O)cc(O)cc21` with its measured MBC.
4

Provide only the value of recorded MBC for `COC(=O)[C@@H]1NC(=O)[C@H]2NC(=O)[C@H](NC(=O)[C@@H]3NC(=O)[C@H]4NC(=O)[C@H](NC(=O)[C@H](n5cc(CO[C@H]6O[C@H](CO)[C@@H](O)[C@H](O)[C@H]6NC(C)=O)nn5)c5ccc(O)c(c5)Oc5cc4cc(O)c5C)[C@H](O)c4ccc(cc4)Oc4cc3cc(c4O)Oc3ccc(cc3)[C@H]2O)c2ccc(O)c(c2)-c2c(O)cc(O)cc21`
4

###

Hi there, I'd appreciate the recorded MIC for every entry that follows.
# System: Staphylococcus epidermidis
# measurement.notes: Antibacterial activity against Staphylococcus epidermidis by broth microdilution method
# Type: functional
Answer with a number only, understood to be in µg/mL.

In one line, give reported MIC of the entry `COC(=O)[C@@H]1NC(=O)[C@H]2NC(=O)[C@H](NC(=O)[C@@H]3NC(=O)[C@H]4NC(=O)[C@H](NC(=O)[C@H](n5cc(CO[C@H]6O[C@H](CO)[C@@H](O)[C@H](O)[C@@H]6O)nn5)c5ccc(O)c(c5)Oc5cc4cc(O)c5C)[C@H](O)c4ccc(cc4)Oc4cc3cc(c4O)Oc3ccc(cc3)[C@H]2O)c2ccc(O)c(c2)-c2c(O)cc(O)cc21` .
4

Recall and state the measured MIC for `COC(=O)[C@@H]1NC(=O)[C@H]2NC(=O)[C@H](NC(=O)[C@@H]3NC(=O)[C@H]4NC(=O)[C@H](NC(=O)[C@H](n5cc(CO[C@H]6O[C@H](CO)[C@@H](O)[C@H](O)[C@H]6O)nn5)c5ccc(O)c(c5)Oc5cc4cc(O)c5C)[C@H](O)c4ccc(cc4)Oc4cc3cc(c4O)Oc3ccc(cc3)[C@H]2O)c2ccc(O)c(c2)-c2c(O)cc(O)cc21` .
4

Given `COC(=O)[C@H]1NC(=O)[C@H]2NC(=O)[C@H](NC(=O)[C@@H]3NC(=O)[C@H]4NC(=O)[C@H](NC(=O)[C@H](n5cc(CO[C@@H]6O[C@@H](C)[C@H](O)[C@@H](O)[C@H]6O)nn5)c5ccc(O)c(c5)Oc5cc4cc(O)c5C)[C@H](O)c4ccc(cc4)Oc4cc3cc(c4O)Oc3ccc(cc3)[C@H]2O)c2ccc(O)c(c2)-c2c(O)cc(O)cc21` , respond with its MIC.
16

Given `COC(=O)[C@@H]1NC(=O)[C@H]2NC(=O)[C@H](NC(=O)[C@@H]3NC(=O)[C@H]4NC(=O)[C@H](NC(=O)[C@H](n5cc(CO[C@H]6O[C@H](COC(C)=O)[C@@H](O[C@H]7O[C@H](COC(C)=O)[C@@H](OC(C)=O)[C@H](OC(C)=O)[C@H]7OC(C)=O)[C@H](OC(C)=O)[C@H]6OC(C)=O)nn5)c5ccc(O)c(c5)Oc5cc4cc(O)c5C)[C@H](O)c4ccc(cc4)Oc4cc3cc(c4O)Oc3ccc(cc3)[C@H]2O)c2ccc(O)c(c2)-c2c(O)cc(O)cc21` , respond with its MIC.
4

Write down MIC measured for item `COC(=O)[C@H]1NC(=O)[C@H]2NC(=O)[C@H](NC(=O)[C@@H]3NC(=O)[C@H]4NC(=O)[C@H](NC(=O)[C@H](N=[N+]=[N-])c5ccc(O)c(c5)Oc5cc4cc(O)c5C)[C@H](O)c4ccc(cc4)Oc4cc3cc(c4O)Oc3ccc(cc3)[C@H]2O)c2ccc(O)c(c2)-c2c(O)cc(O)cc21`
4

Dear colleague, please send me the reported MIC for `COC(=O)[C@@H]1NC(=O)[C@H]2NC(=O)[C@H](NC(=O)[C@@H]3NC(=O)[C@H]4NC(=O)[C@H](NC(=O)[C@H](n5cc(CO[C@H]6O[C@H](COC(C)=O)[C@@H](OC(C)=O)[C@H](OC(C)=O)[C@H]6NC(C)=O)nn5)c5ccc(O)c(c5)Oc5cc4cc(O)c5C)[C@H](O)c4ccc(cc4)Oc4cc3cc(c4O)Oc3ccc(cc3)[C@H]2O)c2ccc(O)c(c2)-c2c(O)cc(O)cc21` when you can.
4

Tell me MIC reported for `COC(=O)[C@@H]1NC(=O)[C@H]2NC(=O)[C@H](NC(=O)[C@@H]3NC(=O)[C@H]4NC(=O)[C@H](NC(=O)[C@H](n5cc(CO[C@H]6O[C@H](CO)[C@@H](O[C@H]7O[C@H](CO)[C@@H](O)[C@H](O)[C@H]7O)[C@H](O)[C@H]6O)nn5)c5ccc(O)c(c5)Oc5cc4cc(O)c5C)[C@H](O)c4ccc(cc4)Oc4cc3cc(c4O)Oc3ccc(cc3)[C@H]2O)c2ccc(O)c(c2)-c2c(O)cc(O)cc21`
1

Please look at this compound and report its MIC: `COC(=O)[C@@H]1NC(=O)[C@H]2NC(=O)[C@H](NC(=O)[C@@H]3NC(=O)[C@H]4NC(=O)[C@H](NC(=O)[C@H](n5cc(CO[C@H]6O[C@H](COC(C)=O)[C@@H](OC(C)=O)[C@H](OC(C)=O)[C@@H]6OC(C)=O)nn5)c5ccc(O)c(c5)Oc5cc4cc(O)c5C)[C@H](O)c4ccc(cc4)Oc4cc3cc(c4O)Oc3ccc(cc3)[C@H]2O)c2ccc(O)c(c2)-c2c(O)cc(O)cc21`
2

Determine from records and report MIC for `COC(=O)[C@@H]1NC(=O)[C@H]2NC(=O)[C@H](NC(=O)[C@@H]3NC(=O)[C@H]4NC(=O)[C@H](NC(=O)[C@H](n5cc(CO[C@H]6O[C@H](CO)[C@@H](O)[C@H](O)[C@H]6NC(C)=O)nn5)c5ccc(O)c(c5)Oc5cc4cc(O)c5C)[C@H](O)c4ccc(cc4)Oc4cc3cc(c4O)Oc3ccc(cc3)[C@H]2O)c2ccc(O)c(c2)-c2c(O)cc(O)cc21`
2

Using known records, supply MIC for `COC(=O)[C@@H]1NC(=O)[C@H]2NC(=O)[C@H](NC(=O)[C@@H]3NC(=O)[C@H]4NC(=O)[C@H](NC(=O)[C@H](n5cc(CO[C@@H]6O[C@@H](C)[C@H](OC(C)=O)[C@@H](OC(C)=O)[C@H]6OC(C)=O)nn5)c5ccc(O)c(c5)Oc5cc4cc(O)c5C)[C@H](O)c4ccc(cc4)Oc4cc3cc(c4O)Oc3ccc(cc3)[C@H]2O)c2ccc(O)c(c2)-c2c(O)cc(O)cc21`
4

Item `COC(=O)[C@@H]1NC(=O)[C@H]2NC(=O)[C@H](NC(=O)[C@@H]3NC(=O)[C@H]4NC(=O)[C@H](NC(=O)[C@H](n5cc(CO[C@H]6O[C@H](COC(C)=O)[C@@H](OC(C)=O)[C@H](OC(C)=O)[C@H]6OC(C)=O)nn5)c5ccc(O)c(c5)Oc5cc4cc(O)c5C)[C@H](O)c4ccc(cc4)Oc4cc3cc(c4O)Oc3ccc(cc3)[C@H]2O)c2ccc(O)c(c2)-c2c(O)cc(O)cc21` : provide MIC
16
